System: BT-549 breast
Test: NCI tumour cell line growth inhibition, 48 h; in the data active = GI50 below about 0.43 µM; inactive = the rest
Your answer must be one of the following: 1.0 for active, 0.0 for inactive

[[record]]
compound = "O=[N+]([O-])c1cccc(C2CC(c3ccccc3)=Nc3ccccc3S2)c1 (stereo not given)"
label_class = 0.0

[[record]]
compound = "Cn1cc(C2=C(c3cn(CCCCCSC(=N)N)c4ccccc34)C(=O)NC2=O)c2ccccc21"
label_class = 0.0

[[record]]
compound = "COc1cccc(/C=C2\\COc3ccc(-c4ccccc4)cc3C2=O)c1"
label_class = 0.0

[[record]]
compound = "O=C(Nc1nc2ccccc2s1)Nc1ccc([N+](=O)[O-])cc1Cl"
label_class = 0.0

[[record]]
compound = "CN(Cc1cnc2nc(N)nc(N)c2n1)c1ccc(C(=O)NC(CCC(=O)O)C(=O)O)cc1Br (stereo not given)"
label_class = 1.0


Incoming: What did the test return for CCCCCCCCCCCC[n+]1ccc2ccccc2c1 ?
Outgoing: 0.0

Incoming: Request: CCn1c(-c2nonc2N)nc2cncc(C(=O)N3CC[C@H](N)C3)c21
Outgoing: 0.0

Incoming: How about this compound: CN1CSC(=S)N(Cc2ccccc2)C1
Outgoing: 0.0

Incoming: Same question for C#CCOc1ccc2ncnc(Nc3ccc(NC(=O)C=C)cc3)c2c1 please.
Outgoing: 0.0

Incoming: Now try COC(=O)c1ccc(NC(=O)Oc2ccc(N(CCCl)CCCl)cc2)cc1 .
Outgoing: 0.0

Source of measurements: PubChem BioAssay (NCI)
